// data source = paper PMC11480844

B1: H2-Kb / Ed10 (parent complex)
chain 1: GEQVEQRPPHLSVREGDSAFIICTYTDSATAYFYWYKQEPGAGLQLLMSVFSNVDRKEEQGLTVLLNKKDKRLSLNLTAAHPGDSAVYFCAVRGTGYQNFYFGKGTSLTVIP
chain 2: AQTIHQWPVAEIKAVGSPLSLGCTIKGKSSPNLYWYWQATGGTLQQLFYSITVGQVESVVQLNLSASRPKDDQFILSTEKLLLSHSGFYLCAWSPGYEQYFGPGTRLTVL
chain 3: not shown
chain 4: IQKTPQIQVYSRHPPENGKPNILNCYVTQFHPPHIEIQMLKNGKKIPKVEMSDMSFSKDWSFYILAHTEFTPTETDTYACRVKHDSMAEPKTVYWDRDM
chain 5: SIINFEKL

Variants of: B1
Assay: % of reporter cells activated (NFAT-GFP), raw; also: test concentration or dose not given here
In this section we review reported ratio to parent values for a set of variants.
MEASURED QUANTITY: ratio to parent

chain 5 L8M = 0.813
chain 5 F5R = 0.815
chain 5 E6G = 0.824
chain 5 F5E = 0.78
